Tested on: yearling carps
testDescription: Test 5 (Fish Toxicity)
Assay type: in vivo, carp
condition: 1 ppm in water
Task for the reader: assign each of the following molecules its reported Mortality(%) 48 Hours After.
Give bare numbers, in %.

Answered cases to consult:
- molecule: "CC(C)(CCCc1ccc(F)c(Oc2ccccc2)c1)c1ccc(OC(F)F)cc1 [Compound 10]"
  scaleUnit: "%"
  Mortality(%) 48 Hours After: 30
- molecule: "CCOc1ccc(C(C)(C)CCCc2cccc(Oc3ccccc3)c2)cc1 [Compound 24]"
  scaleUnit: "%"
  Mortality(%) 48 Hours After: 0
- molecule: "Cc1ccc(C(C)(C)CCCc2cccc(Oc3ccccc3)c2)cc1 [Compound 1]"
  scaleUnit: "%"
  Mortality(%) 48 Hours After: 0
- molecule: "CC(C)(CCCc1cccc(Oc2ccccc2)c1)c1ccccc1 [Compound 17]"
  scaleUnit: "%"
  Mortality(%) 48 Hours After: 0
- molecule: "CCOc1ccc(C(C)(C)CCCc2ccc(F)c(Oc3ccccc3)c2)cc1Cl [Compound 57]"
  scaleUnit: "%"
  Mortality(%) 48 Hours After: 0
- molecule: "CC(C)C(C(=O)OC(C#N)c1cccc(Oc2ccccc2)c1)c1ccc(Cl)cc1 (stereo not drawn) [(g), Fenvalerate, reference compound]"
  scaleUnit: "%"
  Mortality(%) 48 Hours After: 100

Report Mortality(%) 48 Hours After for each item below.
1. CCOc1ccc(C(C)(C)CCCc2ccc(F)c(Oc3ccc(F)cc3)c2)cc1 [Compound 55]
2. COc1ccc(C(C)(C)CCCc2ccc(F)c(Oc3ccccc3)c2)cc1 [Compound 6]
3. CC(C)(CCCc1ccc(F)c(Oc2ccccc2)c1)c1ccc(Cl)cc1 [Compound 20]

[0, 0, 0]
